Target: human TLR7 (Homo sapiens, UniProt Q9NYK1)
Construct: that the line is stably transfected with the human TLR7 gene is own knowledge of the vendor's product)
Sequence (Q9NYK1 27-1049): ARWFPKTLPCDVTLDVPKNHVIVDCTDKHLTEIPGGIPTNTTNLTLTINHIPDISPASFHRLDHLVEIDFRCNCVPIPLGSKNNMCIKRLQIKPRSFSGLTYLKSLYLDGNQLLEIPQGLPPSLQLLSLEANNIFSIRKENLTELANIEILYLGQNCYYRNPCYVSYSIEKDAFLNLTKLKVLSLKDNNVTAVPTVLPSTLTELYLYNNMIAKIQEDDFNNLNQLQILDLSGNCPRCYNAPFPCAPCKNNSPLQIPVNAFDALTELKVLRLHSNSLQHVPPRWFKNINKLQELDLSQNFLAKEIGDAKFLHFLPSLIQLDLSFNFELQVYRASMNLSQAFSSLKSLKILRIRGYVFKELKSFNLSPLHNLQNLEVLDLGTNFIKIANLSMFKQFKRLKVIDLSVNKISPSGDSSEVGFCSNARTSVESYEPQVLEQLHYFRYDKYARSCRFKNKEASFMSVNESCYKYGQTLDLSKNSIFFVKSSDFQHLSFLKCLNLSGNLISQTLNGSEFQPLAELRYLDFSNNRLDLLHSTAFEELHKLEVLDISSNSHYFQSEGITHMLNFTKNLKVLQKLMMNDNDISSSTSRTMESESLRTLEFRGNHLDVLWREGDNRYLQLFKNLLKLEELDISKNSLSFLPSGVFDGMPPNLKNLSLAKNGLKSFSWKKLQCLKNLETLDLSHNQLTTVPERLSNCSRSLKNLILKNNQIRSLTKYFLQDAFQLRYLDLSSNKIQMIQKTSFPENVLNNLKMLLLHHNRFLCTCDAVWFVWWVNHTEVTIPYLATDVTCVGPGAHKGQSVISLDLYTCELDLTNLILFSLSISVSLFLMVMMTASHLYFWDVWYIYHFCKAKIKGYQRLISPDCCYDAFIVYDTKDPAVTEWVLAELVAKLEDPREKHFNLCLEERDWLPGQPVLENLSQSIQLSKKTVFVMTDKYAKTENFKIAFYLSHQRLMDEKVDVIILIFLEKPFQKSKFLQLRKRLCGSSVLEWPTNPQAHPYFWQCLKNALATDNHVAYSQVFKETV
Experiment: Agonistic activity of compounds on HEK-Blue hTLR7 cells (QUANTI-Blue reporter, OD620)
Conditions: HEK-Blue hTLR7 cells, 20 h incubation
Each item that follows carries a reported EC50.
Give the value, in units of µM, as a plain number.

Q) Value lookup for EC50; key = `CCCCc1nc2c(N)nc3cc(C)sc3c2n1CC1CCN(C(=O)CCOCCOCCN)CC1`
A) 1.16

Q) Value lookup for EC50; key = `CCOCc1nc2c(N)nc3ccsc3c2n1CCCCN`
A) 3.25

* * *

biological target: human TLR7 (Homo sapiens, UniProt Q9NYK1); construct: host or cells: HEK-Blue hTLR7 cells (HEK293-derived reporter line; that the line is stably transfected with the human TLR7 gene is own knowledge of the vendor's product); experiment: Agonistic activity of compounds on HEK-Blue hTLR7 cells (QUANTI-Blue reporter, OD620); format: cell-based; conditions: summary in words
MEASURED METRIC: activation effect on human TLR7

Example entries begin here.
> print(dat)
                               input.smiles                  measured.metric            observed.value
1  CCCCc1nc2c(N)nc3cc(C4CCN(C)CC4)sc3c2[nH]1  activation effect on human TLR7  strong activation effect
2  CCCCc1nc2c(N)nc3cc(C4CCN(C)CC4)sc3c2n1CC1CCN(C)CC1  activation effect on human TLR7  strong activation effect
3            COCCc1nc2c(N)nc3ccsc3c2n1CCCCN  activation effect on human TLR7  strong activation effect
4     CCCCc1nc2c(N)nc3cc(C)sc3c2n1CC1CCOCC1  activation effect on human TLR7  strong activation effect
5  CCCCc1nc2c(N)nc3cc(C4CCOCC4)sc3c2n1CC1CCN(C)CC1  activation effect on human TLR7  strong activation effect
6  CCCCc1nc2c(N)nc3cc(C)sc3c2n1CC1CCN(C(=O)CCOCCOCCN)CC1  activation effect on human TLR7  strong activation effect
7        COCCc1nc2c(N)nc3ccsc3c2n1CC1CCNCC1  activation effect on human TLR7  strong activation effect
8            CCOCc1nc2c(N)nc3ccsc3c2n1CCCCN  activation effect on human TLR7  strong activation effect

Alright, here's another compound for you.
Q) Item `CCCCc1nc2c(N)nc3ccsc3c2n1CC1CCN(C)CC1` with human TLR7 (Homo sapiens, UniProt Q9NYK1) - activation effect on human TLR7?
A) strong activation effect
